// data source = patent US20160168126A1

test system: a variety of test species; experiment: Post-emergence herbicidal activity (glasshouse, sprayed 8 days after sowing, evaluated after 13 days); format: in vivo; details: Zea mays, 1000 g/ha, scale 0-5
I'd appreciate it if you marked entries y when Post-emergence herbicidal damage score, ZEAMX (Zea mays) is lower than 1 and n when it is not.

In [3]: df
Out[3]:
                                   compound  group_label
0  C=C(C)c1cc(N2C(=O)C(C)=C(Cl)C2O)nn1C (stereo not shown)            n
1  COC1=C(C)C(=O)N(c2cc3n(n2)CCCC3(C)C)C1O (stereo not shown)            n
2  CC1=C(Cl)C(O)N(c2cc(C(F)C(C)(C)C)n(C)n2)C1=O (mixture of isomers)            y
3  CC1=C(Cl)C(O)N(c2cc(S(C)(=O)=O)n(C)n2)C1=O (stereo not shown)            y
4  CC1=C(Cl)C(O)N(c2nn(C)c(C(C)(C)C)c2Cl)C1=O (stereo not shown) [Compound D2]            y
5  CC1=C(Cl)C(O)N(c2cc(C)[nH]n2)C1=O (stereo not shown)            n
6  CC1=C(Cl)C(O)N(c2cc(C(F)(F)F)[nH]n2)C1=O (stereo not shown)            y
7  CC1=C(Cl)C(O)N(c2nn(C)c(C(C)(C)C)c2C#N)C1=O (stereo not shown) [Compound D1]            y
8  COC1=C(C)C(=O)N(c2nn(C)c3c2CCC3(C)C)C1O (stereo not shown)            n
9  CC1=C(Cl)C(O)N(c2nn(C)c3c2C2CCC3C2)C1=O (stereo not shown)            n

Lab note: confirm whether the reported Post-emergence herbicidal damage score, ZEAMX (Zea mays) for this compound is below 1, equality not counting. compound: C=CCC(C)(C)c1cc(N2C(=O)C(C)=C(Cl)C2O)nn1C (stereo not shown) n

----------
tested on: a variety of test species; test: Post-emergence herbicidal activity (glasshouse, sprayed 8 days after sowing, evaluated after 13 days); format: in vivo; conditions: Abutilon theophrasti, 1000 g/ha, scale 0-5; as to Post-emergence herbicidal damage score, ABUTH (Abutilon theophrasti): key: 5=total damage to plant; 0=no damage to plant
Please provide measured Post-emergence herbicidal damage score, ABUTH (Abutilon theophrasti) for the entries that follow.
Answers are plain numbers.

Quick request: Post-emergence herbicidal damage score, ABUTH (Abutilon theophrasti) for each listed item, please.
1. COC1=C(C)C(=O)N(c2nn(C)c3c2CCC3(C)C)C1O (stereo not drawn)
2. CC1=C(Cl)C(O)N(c2cc(C3CC3)[nH]n2)C1=O (stereo not drawn)

[5, 5]

Quick request: Post-emergence herbicidal damage score, ABUTH (Abutilon theophrasti) for each listed item, please.
1. CCC(C)(CC)c1cc(N2C(=O)C(C)=C(Cl)C2O)n[nH]1 (stereo not drawn)
2. CC(C)=CCc1cc(N2C(=O)C(C)=C(Cl)C2O)nn1C (stereo not drawn)
3. CC1=C(Cl)C(O)N(c2cc(C(F)(F)F)n(CC(F)(F)F)n2)C1=O (stereo not drawn)
4. CCOC(C)(CC)c1cc(N2C(=O)C(C)=C(Cl)C2O)nn1C (mixture of isomers)
5. CC1=C(Cl)C(O)N(c2cc(C(C)(C)C)n(C)n2)C1=O (stereo not drawn)
6. CCn1nc(N2C(=O)C(C)=C(Cl)C2O)c2c1C(C)(C)CC2 (stereo not drawn)
7. CC1=C(Br)C(O)N(c2cc3n(n2)CCC3(C)C)C1=O (stereo not drawn)

1: 5; 2: 2; 3: 2; 4: 5; 5: 5; 6: 5; 7: 5

----------
Please provide measured Post-emergence herbicidal damage score, AMARE (Amaranthus retroflexus) for the entries that follow.
system: a variety of test species; test: Post-emergence herbicidal activity (glasshouse, sprayed 8 days after sowing, evaluated after 13 days); type: in vivo; conditions: Amaranthus retroflexus, 250 g/ha, scale 0-5; as to Post-emergence herbicidal damage score, AMARE (Amaranthus retroflexus): key: 5=total damage to plant; 0=no damage to plant
Answers are plain numbers.

>>> print(df.to_string())
                                   compound  quantitative_readout
0  COC1=C(C)C(=O)N(c2cc(C(C)(C)C)[nH]n2)C1O (stereo not drawn) [Compound I1]                     5
1  CC1=C(Cl)C(O)N(c2cc3n(n2)CCC3(C)C)C1=O (stereo not drawn) [Compound G2]                     5

Quick request: Post-emergence herbicidal damage score, AMARE (Amaranthus retroflexus) for each listed item, please.
1. CC1=C(Cl)C(O)N(c2cc(C(C)C)n(C)n2)C1=O (stereo not drawn) [Compound B5]
2. COC1=C(C)C(=O)N(c2cc(C(C)(C)C)n(C)n2)C1O (stereo not drawn) [Compound I2]
3. CC1=C(Cl)C(O)N(c2cc(C(C)(C)C)[nH]n2)C1=O (stereo not drawn) [Compound A1]

5
5
2

Post-emergence herbicidal damage score, AMARE (Amaranthus retroflexus) for CC1=C(Cl)C(O)N(c2cc(C(C)C)[nH]n2)C1=O (stereo not drawn) [Compound A3] is 5

----------
Please provide measured Post-emergence herbicidal damage score, ZEAMX (Zea mays) for the entries that follow.
tested on: a variety of test species; assay: Post-emergence herbicidal activity (glasshouse, sprayed 8 days after sowing, evaluated after 13 days); format: in vivo; details: Zea mays, 1000 g/ha, scale 0-5
Give bare numbers.

>>> print(df.to_string())
                                   compound  quantitative_readout
0  CC1=C(Br)C(O)N(c2cc(C(C)(C)C)n(C)n2)C1=O (stereo not drawn) [Compound H1]                     1
1  CC1=C(Cl)C(O)N(c2cc(CCC(C)C)n(C)n2)C1=O (stereo not drawn) [Compound B12]                     0
2  CCC1CCn2nc(N3C(=O)C(C)=C(Cl)C3O)cc21 (mixture of isomers) [Compound G3]                     2
3  CC1=C(Br)C(O)N(c2cc3n(n2)CCSC3(C)C)C1=O (stereo not drawn) [Compound H9]                     0

Quick request: Post-emergence herbicidal damage score, ZEAMX (Zea mays) for each listed item, please.
1. CC(C)=CCc1cc(N2C(=O)C(C)=C(Cl)C2O)nn1C (stereo not drawn) [Compound B10]
2. CC(C)=CCc1cc(N2C(=O)C(C)=C(Br)C2O)nn1C (stereo not drawn) [Compound H3]

[0, 0]

Quick request: Post-emergence herbicidal damage score, ZEAMX (Zea mays) for each listed item, please.
1. CCCC1=C(C)C(O)N(c2nn(C)c(C(C)(C)C)c2C#N)C1=O (stereo not drawn) [Compound D4]
2. CC1=C(Cl)C(O)N(c2nn(C)c(C(C)(C)CCl)c2Cl)C1=O (stereo not drawn) [Compound D3]

1: 0; 2: 1

Post-emergence herbicidal damage score, ZEAMX (Zea mays) for CC1=C(Cl)C(O)N(c2cc(C(C)(C)C#N)n(C)n2)C1=O (stereo not drawn) [Compound B23] is 1

----------
test system: a variety of test species; assay: Post-emergence herbicidal activity (glasshouse, sprayed 8 days after sowing, evaluated after 13 days); format: in vivo; settings: Setaria faberi, 250 g/ha, scale 0-5
Please provide measured Post-emergence herbicidal damage score, SETFA (Setaria faberi) for the entries that follow.
One number for each entry.

Examples with answers:
                                   compound  quantitative_readout
0  CC1=C(Cl)C(O)N(c2cc3n(n2)CCC3(C)C)C1=O (stereo not drawn) [Compound G2]                     5
1  CC1=C(Cl)C(O)N(c2cc(C(C)(C)C)[nH]n2)C1=O (stereo not drawn) [Compound A1]                     4
2  CC1=C(Cl)C(O)N(c2cc(C(C)C)n(C)n2)C1=O (stereo not drawn) [Compound B5]                     4
3  CC1=C(Cl)C(O)N(c2cc(C(C)C)[nH]n2)C1=O (stereo not drawn) [Compound A3]                     4
4  COC1=C(C)C(=O)N(c2cc(C(C)(C)C)n(C)n2)C1O (stereo not drawn) [Compound I2]                     4

Post-emergence herbicidal damage score, SETFA (Setaria faberi) for COC1=C(C)C(=O)N(c2cc(C(C)(C)C)[nH]n2)C1O (stereo not drawn) [Compound I1] is 5

----------
tested on: a variety of test species; test: Post-emergence herbicidal activity (glasshouse, sprayed 8 days after sowing, evaluated after 13 days); type: in vivo; settings: Zea mays, 1000 g/ha, scale 0-5
I'd appreciate it if you marked entries criterion met when Post-emergence herbicidal damage score, ZEAMX (Zea mays) is lower than 1 and criterion not met when it is not.

Before answering, review these 2 worked examples.
>>> print(df.to_string())
                                   compound        group_label
0  CC1=C(Cl)C(O)N(c2cc(C(F)(F)F)n(CC(F)(F)F)n2)C1=O (stereo not shown)  criterion not met
1  CCOC(c1cc(N2C(=O)C(C)=C(Cl)C2O)nn1C)C(C)(C)C (mixture of isomers)      criterion met

Lab note: confirm whether the reported Post-emergence herbicidal damage score, ZEAMX (Zea mays) for this compound is below 1, equality not counting. compound: CC1=C(Br)C(O)N(c2cc(C(C)(C)C)[nH]n2)C1=O (stereo not shown) criterion not met

Lab note: confirm whether the reported Post-emergence herbicidal damage score, ZEAMX (Zea mays) for this compound is below 1, equality not counting. compound: CC1=C(Br)C(O)N(c2nn(C)c3c2CCC3(C)C)C1=O (stereo not shown) criterion not met

Lab note: confirm whether the reported Post-emergence herbicidal damage score, ZEAMX (Zea mays) for this compound is below 1, equality not counting. compound: CCn1nc(N2C(=O)C(C)=C(Cl)C2O)cc1C(C)(C)C (stereo not shown) criterion met

Lab note: confirm whether the reported Post-emergence herbicidal damage score, ZEAMX (Zea mays) for this compound is below 1, equality not counting. compound: CC1=C(Cl)C(O)N(c2cc(/C=C/C(C)(C)C)n(C)n2)C1=O (stereo not shown) criterion met

Lab note: confirm whether the reported Post-emergence herbicidal damage score, ZEAMX (Zea mays) for this compound is below 1, equality not counting. compound: CCC1=C(Br)C(O)N(c2nn(C)c(C(C)(C)C)c2C#N)C1=O (stereo not shown) criterion met
